Each recorded value in this set is attributed to PubChem BioAssay (NCI).

test description: NCI Yeast Anticancer Drug Screen. Data for the cln2 rad14 strain (AID 165);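 note: 0% = growth equal to vehicle treated cultures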
measurement setup: S. cerevisiae cln2 rad14 strain, at 5.0 µM (retest, dose inferred, filed as 0.5), active compounds read high
This is part of a sample that, as a whole, favours compounds with a hit. Of some 79,000 tested, about 15% had one in any assay. Activity calls are given as the source filed them. Cut-off read from the data, not from the text of the source: active = growth inhibition above about 70%; inactive = the rest.
Consider the following compounds; for each one, report its growth inhibition.

COC(=O)c1cc(-c2ccc(C)cc2)[nH]c(=O)c1C#N = 30% (inactive)
NNC(=O)CCc1ccc2ccc3ccccc3c2c1 = -28% (inactive)
BrCC[P+](c1ccccc1)(c1ccccc1)c1ccccc1 = 43% (inactive)
CCCCCCCCCCCCCCCCCCNC = 32% (inactive)
O=C(O)C1OC1(c1cccc(Cl)c1)c1ccccc1Cl (configuration not stated) = 54% (inactive)
Fc1ccc(NC(=S)SCc2ccc3c(c2)OCO3)cc1F = 21% (inactive)

Input line: Indicate the recorded growth inhibition value for this compound: O=C(N=Nc1ccccc1Cl)NNc1ccccc1Cl
Output line: -25% (inactive)

* * *

test description: NCI Yeast Anticancer Drug Screen. Data for the mec2-1 strain (AID 157)
measurement setup: S. cerevisiae mec2-1 strain, at 50.0 µM (retest, dose inferred, filed as 5.0), active compounds read high
Compounds without any hit were thinned out: in the full panel of roughly 79,000, 15% have a hit.
measured property: growth inhibition (%)
Numbers only, in %.

CSC(=S)N/N=C(\C)c1cccc(C)n1 = 99
COCCOC(=O)CCn1cc(F)c(=O)[nH]c1=O = 78
COc1cc(C2c3cc4c(cc3OC(Nc3ccccc3)C2C)OCO4)cc(OC)c1O (stereo unspecified) = 78
C(=C\c1ccccc1)/COc1ccccc1C(N1CCOCC1)n1nc2ccccc2n1 (stereo unspecified) = 95
CN(C)c1ccc(C(C#N)=C(C#N)C#N)cc1 = 82
O=C1NC(=O)C2C3C=CC(C3)C12 (stereo unspecified) = -42

For each of the compounds below, state growth inhibition.
1. CC[n+]1ccc2c(C)c3[nH]c4ccc(O)cc4c3c(C)c2c1
2. Cn1c(=O)c(-c2ccccc2)c(N=[N+]=[N-])c2ccccc21
3. COc1cc2c(cc1[N+](=O)[O-])C(=O)C(Br)(Br)CCC2
4. COc1cc(C2SCC(=O)N2c2nnc(C(F)(F)F)s2)cc(OC)c1OC (stereo unspecified)

Output line:
1. 16
2. 92
3. 100
4. -4

For each of the compounds below, state growth inhibition.
1. Cc1nc(-c2ccccc2)c(-c2ccccc2)s1
2. BrCC[P+](c1ccccc1)(c1ccccc1)c1ccccc1
3. Cc1ccc(CSC(N)=Nc2ccccc2)cc1C

Output line:
100
98
-22

For each of the compounds below, state growth inhibition.
1. Nc1nc(Cl)c(Cl)c(Cl)n1
2. CCCCCCCCCCCCCCCCCCOCC(O)COP(=O)(O)OCC1OC(n2cc(F)c(=O)[nH]c2=O)CC1O (stereo unspecified)
3. CCCCCCCCCCCCCCCCCCN(C)CC(COP(=O)([O-])OCC[N+](C)(C)C)OC (stereo unspecified)
4. CCN(CC)C(C)(C)C(=O)/C=C/c1ccccc1
5. COc1ccc(NC(=S)N/N=C(\c2ccccc2)c2ccccn2)cc1

Output line:
[99, 99, 99, 47, 75]

For each of the compounds below, state growth inhibition.
1. Cc1cc2c(cc1C(=O)CCC(=O)O)CC1(C2)Cc2cc(C)c(C(=O)CCC(=O)O)cc2C1
2. Cc1ccc(Nc2nc3c(=O)n(C)c(=O)n(C)c3nc2Nc2ccc(C)cc2)cc1
3. COc1ccc(/C=C2\SC(=S)N(/C=C/c3nc4ccccc4[nH]c3=O)C2=O)cc1OC
4. O=[N+]([O-])c1cc(CCl)ccc1CCl
5. O=C(O)CNc1ccc(Cl)c(Cl)c1
6. CCN(CC)CC[n+]1ccc2c(C)c3[nH]c4ccc(O)cc4c3c(C)c2c1
7. CC(C)NC(=O)OCc1c(COC(=O)NC(C)C)c(-c2ccc(Cl)c(Cl)c2)n2c1CCC2
8. O=C(NCCCCNCCCNC(=O)c1cc(-c2ccccc2)nc2ccccc12)c1cc(-c2ccccc2)nc2ccccc12

Output line:
[14, 22, 45, 97, 30, 4, 8, 59]
